assay: Liver microsomal stability (extraction ratio); assay type: in vitro ADME; conditions: test compound 1 μM; 0.5 mg/mL liver microsomes, NADPH 1 mM, 37° C.; predicted hepatic clearance (well-stirred model) divided by species blood flow; species not given
ENDPOINT_NAME: Extraction Ratio @ 1 μM
Answer as a number with no unit attached.

Challenge: Suppose we examine the molecule CC[S+]([O-])Cn1ncc2ncc(-c3ccc(F)c(C(F)F)c3)cc21 (single isomer, unassigned) ; what Extraction Ratio @ 1 μM value has been reported?
Response given: 0.46

Challenge: Also O=C(Cn1ncc2ncc(-c3cccc(C(F)F)c3)cc21)C1CC1 ?
Response given: 0.43

Challenge: Also CCN1CC(Cn2ncc3ncc(-c4ccc(F)c(C(F)F)c4)cc32)OC1=O (racemic) ?
Response given: 0.58

Challenge: Also CCC(=O)Cn1ncc2ncc(-c3cc(F)c(F)c(F)c3)cc21 ?
Response given: 0.63

---

The following compounds are listed with their measured Extraction Ratio @ 1 μM values.
assay: Liver microsomal stability (extraction ratio); format: in vitro ADME; conditions: test compound 1 μM; 0.5 mg/mL liver microsomes, NADPH 1 mM, 37° C.; predicted hepatic clearance (well-stirred model) divided by species blood flow; species not given

>  <COMPOUND>
CCC(=O)Cn1ncc2ncc(-c3ccc(F)c(C(F)F)c3)cc21 [Example 4]

>  <ENDPOINT_NAME>
Extraction Ratio @ 1 μM

>  <REPORTED_MEASUREMENT>
0.66

$$$$
>  <COMPOUND>
CCC(=O)Cn1nc(C)c2ncc(-c3ccc(F)c(C(F)F)c3)cc21 [Example 36]

>  <ENDPOINT_NAME>
Extraction Ratio @ 1 μM

>  <REPORTED_MEASUREMENT>
0.72

$$$$
>  <COMPOUND>
CC[S+]([O-])Cn1ncc2ncc(-c3cccc(C(F)(F)F)c3F)cc21 (racemic) [Example 86]

>  <ENDPOINT_NAME>
Extraction Ratio @ 1 μM

>  <REPORTED_MEASUREMENT>
0.50

$$$$

Challenge: Suppose we examine the compound CC(=O)Cn1ncc2ncc(-c3ccc(F)c(OC(F)F)c3)cc21 [Example 25] ; what Extraction Ratio @ 1 μM value has been reported?
Response given: 0.64

Challenge: Also Cc1c(F)ccc(-c2cnc3cnn(CC(=O)C4CC4)c3c2)c1C [Example 78] ?
Response given: 0.52

Challenge: Also CCC(=O)Cn1ncc2ncc(-c3cccc(C(F)(F)F)c3F)cc21 [Example 38] ?
Response given: 0.61

meta.source: patent US20220324860A1
